Target: Tyrosine-protein phosphatase non-receptor type 1 (Homo sapiens)
Sequence (P18031 whole entry): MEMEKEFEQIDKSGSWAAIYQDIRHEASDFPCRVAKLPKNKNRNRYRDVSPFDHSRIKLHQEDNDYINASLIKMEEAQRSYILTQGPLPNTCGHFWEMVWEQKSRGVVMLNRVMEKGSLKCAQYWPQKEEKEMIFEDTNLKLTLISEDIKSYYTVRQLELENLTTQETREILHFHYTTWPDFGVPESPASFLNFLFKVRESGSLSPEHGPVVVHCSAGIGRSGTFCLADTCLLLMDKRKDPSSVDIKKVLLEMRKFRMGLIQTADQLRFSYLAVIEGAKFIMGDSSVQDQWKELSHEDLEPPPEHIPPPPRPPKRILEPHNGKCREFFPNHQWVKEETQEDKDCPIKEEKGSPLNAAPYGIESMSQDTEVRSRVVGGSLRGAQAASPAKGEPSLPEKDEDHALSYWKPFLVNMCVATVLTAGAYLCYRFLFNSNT
Test: PTP1B Assay
Conditions: pH 6; 37 °C
VALUE_TYPE: pKi
Scale: pKi equals -log10([C]), with [C] in mol/L.

>  <COMPOUND>
O=C1C=CC(=C(c2ccc(O)cc2)c2c(-c3ccc(O)cc3O)ccc(CO)c2C#Cc2ccc(O)cc2)C=C1 [PTP1B spring 5 (5)]

>  <VALUE_TYPE>
pKi

>  <ENDPOINT_RESULT>
4.86

$$$$

Now, please, on to the next compound.
Q: Could you share which pKi value was measured for COc1cc(C#Cc2c(CO)ccc(-c3ccc(O)cc3)c2C(=C2C=CC(=O)C=C2)c2ccc(O)cc2)ccc1O [Selaginellin V (3)] ?
A: 4.95

Reference source: BindingDB's records for doi:10.7270/Q2ZP450S
